Assay: Fluorescence properties of compounds 3, 4, 5 and FP1 (Table 1)
Assay type: physicochemical
quantity kind: λabs (nm)
Respond numerically; units are nm and should not be typed.

Worked set:
>  <molecule>
Cc1cc2c(cc1C1=C3C=CC(=O)C=C3[Si](C)(C)c3c1cc1c4c3CCCN4CCC1)c(C=O)cn2C

>  <unit string>
nm

>  <λabs>
633

$$$$
>  <molecule>
C=CCC(N)c1cn(C)c2cc(C)c(C3=C4C=CC(=O)C=C4[Si](C)(C)c4c3cc3c5c4CCCN5CCC3)cc12 (stereo not shown)

>  <unit string>
nm

>  <λabs>
633

$$$$
>  <molecule>
C=CCC(NCc1ccc([N+](=O)[O-])cc1)c1cn(C)c2cc(C)c(C3=C4C=CC(=O)C=C4[Si](C)(C)c4c3cc3c5c4CCCN5CCC3)cc12 (stereo not shown)

>  <unit string>
nm

>  <λabs>
620

$$$$

Now take the following molecule into account.
Reported λabs for Cc1cc2c(ccn2C)cc1C1=C2C=CC(=O)C=C2[Si](C)(C)c2c1cc1c3c2CCCN3CCC1 : what is it? 633
